Where do the numbers come from? From patent US20160159919A1.

# Kd values compiled below
- test-target: T1, Human EREG (Biacore analyte) (human, UniProt O14944 63-108)
- T1 construct: also called hEREG; human epiregulin
- T1 sequence (O14944 63-108 limits assumed): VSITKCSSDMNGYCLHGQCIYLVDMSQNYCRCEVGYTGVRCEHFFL
- assay-remarks: SPR (Biacore T100), antibody captured on Protein A, EREG as analyte, single-cycle kinetics
Write down the numeric answer in nM and omit the unit.

Past entries and their recorded results:
{"columns": ["binder", "numeric-value"],
 "data": [
  ["H87-G1d/LB-k (antibody, human IgG1, kappa, V domains shown) VH: QDQLVQSGAEVKKPGASVKVSCKASGFNIKDTYIQWVRQAPGQGLEWMGRIDPLTGQTKYQEKFEGRVTITADTSTNTAYMELSSLRSEDTAVYYCVRSGTSFDFWGQGTLVTVSS VL: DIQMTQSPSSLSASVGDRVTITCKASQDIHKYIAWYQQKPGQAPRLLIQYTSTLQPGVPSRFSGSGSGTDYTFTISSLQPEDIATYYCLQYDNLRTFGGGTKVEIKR", 0.15],
  ["chimeric antibody EP27 (cH-G1/cL-k) (antibody, human IgG1, kappa, V domains shown, mouse EP27 variable regions with human IgG1 (G1) and kappa constant regions; also called chimeric EP27) VH: EDQLQQSGAELVKPGASVKLSCTASGFNIKDTYIQWVKLRPEQGLEWIGRIDPLNGNTKYVPKFQGKATITADTSSNTAYLQLSSLTSEDTAVYYCVRSGTLFDFWGQGTTLTVSS VL: DIQMTQSPSSLSASLGGKVTITCKASQDIHKYIAWYQHKPGKGPRLLIQYTSTLQPGIPSRFSGSGSGRDYSFSISNLEPEDIATYYCLQYDNLRTFGGGTKLEIKR", 0.2]
]}

Now consider a different binder.
Exercise: For the binder shown here, H206-G1d/L73-k (antibody, human IgG1, kappa, V domains shown) VH: QDQLVQSGAEVKNPGASVKVSCKASGFNIKDTYIQWVRQAPGQGLEWMGRIDPLRRQTKYREKFEGRVTITADTSTNTAYMELSSLRSEDTAVYYCVRSGREFDFWGQGTLVTVSS VL: DIQMTQSPSSLSASVGDRVTITCRASQDIHKYIAWYQQKPGQAPRLLIQYTSTLQPGVPSRFSGSGSGTDYTFTISSLQPEDIATYYCLQYEQLRTFGGGTKVEIKR , give the reported Kd.
Solution: 0.13
